# Tested on: MS2 coat protein
# assay-summary: apparent KD of MS2 coat protein; designed switch direction (-1 OFF switch, 1 ON switch): 1; higher = weaker reporter binding
# condition: Eterna round: R95; input ligand: none
measurement-kind: apparent KD of MS2 coat protein (µM)
Hi! Could you send only the number? It should be in µM, unit omitted.

Supply reported apparent KD of MS2 coat protein belonging to this sequence: UACAAUCUAUCUGAGGAUAUCAUGAAGAAAACAUGAGGAUCACCCAUGUGCAGGAUAACUGCAAAUGAGAAGGCAGAUAGAUUGU [Mat - Same State 2 - Mod - D5] (puzzle: Same State 2)
0.018

Supply reported apparent KD of MS2 coat protein belonging to this sequence: GUAUAACAUGAGGAUCACCCAUGUCAUCUAAGUCGAGGAUAUGGGAAUUAAUUAAUUAAACCAGAAGGCGAAAAUG [Mat - Same State 1 - D93] (puzzle: Same State 1)
0.3

Supply reported apparent KD of MS2 coat protein belonging to this sequence: AGUCCAGCAUAAGCUGGACAAAAGCAUGUACAUGAGGAUCACCCAUGUCAUGUACAAGCUUUUUGCUCGUCUUAAUA [Mat - hsa-mir-208a - Mod of JL - D36] (puzzle: Sensor for hsa-mir-208a)
0.5

Supply reported apparent KD of MS2 coat protein belonging to this sequence: AUAAGGCAAGCUUUUUUCUCGUAGUGUAAACAUGAGGAUCACCCAUGUGCCCACCCUGGAUCUUUGGAUCGCGGAAC [Raxesori] (puzzle: Sensor for hsa-mir-208a)
0.104

Supply reported apparent KD of MS2 coat protein belonging to this sequence: AGUCCAGCCUGAGCUGGACAAAAGCAUGUACAUGAGGAUCACCCAUGUUCAUGUACAAGCUUUUUGCAAGUCAAAAU [Mat - hsa-mir-208a - Mod of JL - 80] (puzzle: Sensor for hsa-mir-208a)
0.641

More entries:
Supply reported apparent KD of MS2 coat protein belonging to this sequence: GGCAGGUGCAGGCUUGCUUGCACCUGGAAACAUGAGGAUCACCCAUGUUUGGGACAAGCUUUGCUCCUCGUCUUAUC [JL ViennaUCT Isusreraar mod 1] (puzzle: Sensor for hsa-mir-208a)
0.232

Taken from the supplement of paper PMC9170038.
